subject-of-test: BRD4 Bromodomain 2 (BRD4 BD2) (Homo sapiens, UniProt O60885)
Construct: 333-460 were cloned, expressed, and purified to homogeneity
protocol-notes: AlphaScreen binding assay, BRD4 BD2
conditions-used: His-tagged BRD4 BD2 100 nM, biotinylated H4 (1-21) K5/8/12/16 tetra-acetylated peptide 100 nM, compounds listed under IC50 range headings
pIC50: −log10 of the molar value.
measure: pIC50

{"compound": "C[C@H]1CCc2c(ccc(-c3cnn(C4CCNCC4)c3)c2Oc2ccc(C#N)cc2F)N1C(=O)C1CC1 [I-152]", "measure": "pIC50", "endpoint-result": "> 7.30"}
{"compound": "COC(=O)N1c2ccc(-c3cnn(C4CN(C)C4)c3)c(OC3CCC3)c2CC[C@@H]1C [I-284]", "measure": "pIC50", "endpoint-result": "6.30 to 7.30"}
{"compound": "COC(=O)c1ccc(Oc2c(-c3cnn(C4CCNCC4)c3)ccc3c2CC[C@H](C)N3C(=O)OC)nc1 [I-537]", "measure": "pIC50", "endpoint-result": "6.30 to 7.30"}
{"compound": "COC(=O)N1c2ccc(-c3cnn(CCO)c3)c(OCC(C)C)c2CC[C@@H]1C [I-457]", "measure": "pIC50", "endpoint-result": "6.30 to 7.30"}
{"compound": "CC(=O)N1c2ccc(-c3cnn(CC(C)(C)O)c3)c(OCC(=O)N(C)C)c2CC[C@@H]1C [I-418]", "measure": "pIC50", "endpoint-result": "6.30 to 7.30"}
{"compound": "CC(=O)N1c2ccc(-c3cnn(C4CC4)c3)c(OCc3ccccc3)c2CC[C@@H]1C [I-393]", "measure": "pIC50", "endpoint-result": "> 7.30"}
{"compound": "CC(=O)N1c2ccc(-c3cnn(CCO)c3)c(Oc3ncc(C(F)(F)F)cn3)c2CC[C@@H]1C [I-542]", "measure": "pIC50", "endpoint-result": "6.30 to 7.30"}
{"compound": "COC(=O)N1c2ccc(-c3cnn(C4CCNCC4)c3)c(Oc3ccc(F)cc3)c2CC[C@@H]1C [I-158]", "measure": "pIC50", "endpoint-result": "> 7.30"}
{"compound": "CC(=O)N1c2ccc(-c3cnn(CC(C)(C)O)c3)c(OCC(=O)N3CCCC3)c2CC[C@@H]1C [I-429]", "measure": "pIC50", "endpoint-result": "6.30 to 7.30"}
{"compound": "COC(=O)N1c2ccc(-c3cnn(CC(C)(C)O)c3)c(OCC(=O)N(C)C)c2CC[C@@H]1C [I-453]", "measure": "pIC50", "endpoint-result": "6.30 to 7.30"}
{"compound": "CC(=O)N1c2ccc(-c3ccc(S(C)(=O)=O)cn3)c(OCC(=O)N(C)C)c2CC[C@@H]1C [I-116]", "measure": "pIC50", "endpoint-result": "6.30 to 7.30"}
{"compound": "COC(=O)N1c2ccc(-c3cnn(C4CC4)c3)c(OCC(C)(C)CO)c2CC[C@@H]1C [I-17]", "measure": "pIC50", "endpoint-result": "6.30 to 7.30"}
{"compound": "COC(=O)N1c2ccc(-c3cnn(C4CCNCC4)c3)c(Oc3cccc(Cl)c3C#N)c2CC[C@@H]1C [I-149]", "measure": "pIC50", "endpoint-result": "> 7.30"}
{"compound": "CC(=O)N1c2ccc(-c3cccc(S(C)(=O)=O)c3)c(OCC(=O)N(C)C)c2CC[C@@H]1C [I-493]", "measure": "pIC50", "endpoint-result": "≤ 6.30"}
{"compound": "CC(=O)N1c2ccc(-c3cnn(C4CC4)c3)c(Oc3ncccc3C)c2CC[C@@H]1C [I-286]", "measure": "pIC50", "endpoint-result": "6.30 to 7.30"}
{"compound": "COC(=O)N1c2ccc(-c3cnn(C4CCNCC4)c3)c(Oc3ncccc3C(F)(F)F)c2CC[C@@H]1C [I-527]", "measure": "pIC50", "endpoint-result": "6.30 to 7.30"}
